assay: Cytotoxicity against human MT4 cells assessed as reduction in cell viability after 4 days by MTT assay; type: cell-based
This section presents compounds with their documented CC50 at 96 h values.
Property name: CC50 at 96 h

{"Mol": "CCOC(=O)c1cnc(N2CCN(Cc3ccccc3C(F)(F)F)CC2)nc1Oc1c(C)cc(-c2ccc(C#N)cc2)cc1C", "Property name": "CC50 at 96 h", "Measured value": "> 125 µM"}
{"Mol": "CCOC(=O)c1cnc(N2CCN(Cc3cccc([N+](=O)[O-])c3)CC2)nc1Oc1c(C)cc(-c2ccc(C#N)cc2)cc1C", "Property name": "CC50 at 96 h", "Measured value": "> 125 µM"}
{"Mol": "CCOC(=O)c1cnc(N2CCN(Cc3ccc(F)cc3)CC2)nc1Oc1c(C)cc(-c2ccc(C#N)cc2)cc1C", "Property name": "CC50 at 96 h", "Measured value": "> 118 µM"}
{"Mol": "Cc1ccnc2c1NC(=O)c1cccnc1N2C1CC1", "Property name": "CC50 at 96 h", "Measured value": "> 4 µM"}
{"Mol": "CCOC(=O)c1cnc(N2CCN(Cc3cccc(Br)c3)CC2)nc1Oc1c(C)cc(-c2ccc(C#N)cc2)cc1C", "Property name": "CC50 at 96 h", "Measured value": "> 125 µM"}
{"Mol": "CCOC(=O)c1cnc(N2CCN(Cc3ccccc3F)CC2)nc1Oc1c(C)cc(-c2ccc(C#N)cc2)cc1C", "Property name": "CC50 at 96 h", "Measured value": "> 125 µM"}
{"Mol": "CCOC(=O)c1cnc(N2CCN(Cc3ccccc3[N+](=O)[O-])CC2)nc1Oc1c(C)cc(-c2ccc(C#N)cc2)cc1C", "Property name": "CC50 at 96 h", "Measured value": "≥ 78.7 µM"}
{"Mol": "CCOC(=O)c1cnc(N2CCN(Cc3cccc(C(=O)OC)c3)CC2)nc1Oc1c(C)cc(-c2ccc(C#N)cc2)cc1C", "Property name": "CC50 at 96 h", "Measured value": "> 125 µM"}
{"Mol": "CCOC(=O)c1cnc(N2CCN(Cc3ccc(C#N)cc3)CC2)nc1Oc1c(C)cc(-c2ccc(C#N)cc2)cc1C", "Property name": "CC50 at 96 h", "Measured value": "> 125 µM"}
{"Mol": "CCOC(=O)c1cnc(N2CCN(Cc3cc(F)cc(F)c3)CC2)nc1Oc1c(C)cc(-c2ccc(C#N)cc2)cc1C", "Property name": "CC50 at 96 h", "Measured value": "> 125 µM"}
{"Mol": "CCOC(=O)c1cnc(N2CCN(Cc3ccc(Br)cc3)CC2)nc1Oc1c(C)cc(-c2ccc(C#N)cc2)cc1C", "Property name": "CC50 at 96 h", "Measured value": "> 125 µM"}
{"Mol": "CCOC(=O)c1cnc(N2CCN(Cc3ccc(S(N)(=O)=O)cc3)CC2)nc1Oc1c(C)cc(-c2ccc(C#N)cc2)cc1C", "Property name": "CC50 at 96 h", "Measured value": "≥ 7.93 µM"}
{"Mol": "CCOC(=O)c1cnc(N2CCN(Cc3cc(C)cc(C)c3)CC2)nc1Oc1c(C)cc(-c2ccc(C#N)cc2)cc1C", "Property name": "CC50 at 96 h", "Measured value": "> 125 µM"}
{"Mol": "CCOC(=O)c1cnc(N2CCN(Cc3cccc(C(F)(F)F)c3)CC2)nc1Oc1c(C)cc(-c2ccc(C#N)cc2)cc1C", "Property name": "CC50 at 96 h", "Measured value": "> 125 µM"}
{"Mol": "CCOC(=O)c1cnc(N2CCN(Cc3ccc(S(C)(=O)=O)cc3)CC2)nc1Oc1c(C)cc(-c2ccc(C#N)cc2)cc1C", "Property name": "CC50 at 96 h", "Measured value": "> 125 µM"}
{"Mol": "CCOC(=O)c1cnc(N2CCN(Cc3ccc(C(N)=O)cc3)CC2)nc1Oc1c(C)cc(-c2ccc(C#N)cc2)cc1C", "Property name": "CC50 at 96 h", "Measured value": "66.5 µM"}
{"Mol": "CCOC(=O)c1cnc(N2CCN(Cc3cccc(F)c3)CC2)nc1Oc1c(C)cc(-c2ccc(C#N)cc2)cc1C", "Property name": "CC50 at 96 h", "Measured value": "> 125 µM"}
{"Mol": "CCOC(=O)c1cnc(N2CCN(Cc3ccccc3Br)CC2)nc1Oc1c(C)cc(-c2ccc(C#N)cc2)cc1C", "Property name": "CC50 at 96 h", "Measured value": "> 125 µM"}

Value source: ChEMBL document CHEMBL4261617
